cond: 298.15 K; 101 kPa; Liquid
endpoint: speed of sound (m/s)
Your answer is read as m/s, so omit the unit and give the number.

Example compounds with recorded speed of sound:
>  <compound>
CC(=O)N(C)C [N,N-dimethylethanamide]

>  <speed of sound / m/s>
1455.9

$$$$
>  <compound>
CN(C)C=O [dimethylformamide]

>  <speed of sound / m/s>
1457.5

$$$$
>  <compound>
CN1CCCC1=O

>  <speed of sound / m/s>
1531.5

$$$$

speed of sound lookup needed for NC=O [formamide] , thanks.
1597.3

speed of sound lookup needed for CNC=O [N-methylformamide] , thanks.
1431.9

speed of sound lookup needed for `O=C1CCCN1` , thanks.
1633.7
